Hello, the source for this data is BindingDB's records for doi:10.1021/jm9707028, in case you need it.

testedTarget: Gag-Pol polyprotein [600-1027,R876K]/[600-1155] (Human immunodeficiency virus 1, UniProt P03366, R876K)
Construct: 600-1027; 600-1155
assayProtocol: HIV-1 RT Assay
We begin with a simple list: items and their reported pIC50.
Scale for pIC50: -log10 of concentration given in mol/L; no unit attached.

Worked examples follow.
{"columns": ["smilesNotation", "pIC50"],
 "data": [
  ["CCN1c2ncc(CCc3ccncc3)cc2C(=O)N(C)c2cccnc21", 7.30],
  ["CCN1c2ncc(CCc3ccccc3)cc2C(=O)N(C)c2ccc(-c3ccc[nH]3)nc21", 6.23],
  ["CCN1c2ncc(CCc3cccnc3)cc2C(=O)N(C)c2cccnc21", 7.52]
]}

Next item in the queue.
response.value for CCN1c2ncc(CCc3ccc(C)cc3)cc2C(=O)N(C)c2cccnc21 (field: pIC50) = 7.00
